# targetDesc: UniProt O14933
# Sequence (O14933 whole entry): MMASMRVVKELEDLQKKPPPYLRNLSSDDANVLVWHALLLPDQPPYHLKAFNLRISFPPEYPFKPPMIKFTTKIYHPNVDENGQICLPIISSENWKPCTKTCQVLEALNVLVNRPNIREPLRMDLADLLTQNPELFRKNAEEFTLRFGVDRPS
# experimentDescription: Competitive isoTOP-ABPP, cell lysates
# Assay type: binding
# statedConditions: 500 μm in-vitro ramos
endpointName: isoTOP-ABPP ratio (reactivity profile), O114933_C98

Challenge: UniProt O14933 / isoTOP-ABPP ratio (reactivity profile), O114933_C98 / N#C/C(=C\c1cc(C(F)(F)F)cc(C(F)(F)F)c1)C(N)=O : value?
Response given: 1.2

Challenge: UniProt O14933 / isoTOP-ABPP ratio (reactivity profile), O114933_C98 / O=C(CCl)N1CCOCC1 : value?
Response given: 2.0

Challenge: UniProt O14933 / isoTOP-ABPP ratio (reactivity profile), O114933_C98 / O=C(CCl)N1CCC(C(O)(c2ccccc2)c2ccccc2)CC1 : value?
Response given: 3.9

Challenge: UniProt O14933 / isoTOP-ABPP ratio (reactivity profile), O114933_C98 / C=CC(=O)N(Cc1cccnc1)c1ccc(Oc2ccccc2)c(C(F)(F)F)c1 : value?
Response given: 1.3

Challenge: UniProt O14933 / isoTOP-ABPP ratio (reactivity profile), O114933_C98 / COc1ccccc1OCCNC(=O)CCl : value?
Response given: 1.2
